Recorded measurements of pEC50, one per entry
- study_system: hM1 (Homo sapiens)
- Construct: host or cells: CHO-K1
- Sequence (P11229 whole entry): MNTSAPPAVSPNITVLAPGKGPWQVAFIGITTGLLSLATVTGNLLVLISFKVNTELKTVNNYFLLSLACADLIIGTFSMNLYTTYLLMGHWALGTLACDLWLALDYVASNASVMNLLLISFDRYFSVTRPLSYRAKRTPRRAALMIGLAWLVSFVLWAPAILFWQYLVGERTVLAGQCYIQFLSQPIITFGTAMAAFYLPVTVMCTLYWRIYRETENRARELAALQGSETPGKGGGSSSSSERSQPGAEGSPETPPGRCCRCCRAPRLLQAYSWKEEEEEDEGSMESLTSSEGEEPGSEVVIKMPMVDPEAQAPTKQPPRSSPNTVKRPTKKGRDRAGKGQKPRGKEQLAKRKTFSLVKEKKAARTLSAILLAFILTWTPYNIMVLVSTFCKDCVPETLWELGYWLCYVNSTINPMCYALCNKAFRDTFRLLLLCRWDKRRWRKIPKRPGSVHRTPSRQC
- method_summary: Calcium mobilization assay in CHO-K1 cells stably expressing human M1 (high throughput, FDSS 6000)
- Assay type: cell-based
- measurement_context: agonist-evoked calcium mobilization, CHO-K1 hM1 cells; read-out: hM1 Potency (EC50)
Scale: negative log10 of molar concentration, which is what pEC50 denotes.

| compound | pEC50 |
| --- | --- |
| CCOC(=O)N1C2CCC1CC(N1CCC[C@@H](NC(=O)c3ccc(F)c(F)c3)C1)C2 (some centres unmarked) [Example 12] | 6.12 |
| CCOC(=O)N1C2CCC1CC(N1CCC[C@@H](NC(=O)c3ccccc3)C1)C2 (some centres unmarked) [Example 3] | 5.80 |
| CCOC(=O)N1C2CCC1CC(N1CC[C@@H](NC(=O)c3ccccc3C)C1)C2 (some centres unmarked) [Example 16] | 6.03 |

Ask: Endpoint output: pEC50 of CCOC(=O)N1C2CCC1CC(N1CCC[C@@H](NC(=O)c3ccc(F)cc3Cl)C1)C2 (some centres unmarked) [Example 14] . Value?
Result: 6.21

Ask: Suppose we examine the compound CCOC(=O)N1C2CCC1CC(N1CCC[C@@H](NC(=O)c3ccccc3F)C1)C2 (some centres unmarked) [Example 13] ; what pEC50 value has been reported?
Result: 5.38

Ask: # input compound: CCOC(=O)N1C2CCC1CC(N1CC[C@@H](NC(=O)c3ccccc3)C1)C2 (some centres unmarked) [Example 17] ; wanted: its pEC50
Result: 6.80

Ask: Any idea what its pEC50 is? The compound is CCOC(=O)N1C2CCC1CC(N1CCC[C@@H](NC(=O)OC(C)(C)C)C1)C2 (some centres unmarked) [Example 1]
Result: 5.70

Ask: Tell me the measured pEC50 of CCOC(=O)N1C2CCC1CC(N1CCC[C@@H](NC(=O)c3c(F)cccc3F)C1)C2 (some centres unmarked) [Example 15] , please.
Result: 6.48

---

- study_system: hM1 (Homo sapiens)
- Construct: host or cells: CHO-K1
- method_summary: Calcium mobilization assay in CHO-K1 cells stably expressing human M1 (high throughput, FDSS 6000)
- Type: cell-based
- measurement_context: HM1, read-out: Efficacy (% Max ACh)
Just a reminder that ties go to no (0): only Emax strictly below 50% counts as yes (1).

Below are worked cases with known answers.
| molecule | study_system | cat |
| --- | --- | --- |
| CCOC(=O)N1C2CCC1CC(N1CC[C@@H](NC(=O)c3ccccc3)C1)C2 (stereo partly shown) | hM1 (Homo sapiens) | no (0) |
| CCOC(=O)N1C2CCC1CC(N1CCC[C@@H](NC(=O)c3ccccc3Cl)C1)C2 (stereo partly shown) | hM1 (Homo sapiens) | no (0) |
| CCOC(=O)N1C2CCC1CC(N1CCC[C@@H](NC(=O)c3cccc(OC)c3)C1)C2 (stereo partly shown) | hM1 (Homo sapiens) | no (0) |
| CCOC(=O)N1C2CCC1CC(N1CCC[C@@H](NC(=O)OC(C)(C)C)C1)C2 (stereo partly shown) | hM1 (Homo sapiens) | yes (1) |

Ask: Is 50% strictly greater than the molecule's reported Emax? molecule: CCOC(=O)N1C2CCC1CC(N1CCC[C@@H](NC(=O)c3ccccc3F)C1)C2 (stereo partly shown)
Result: yes (1)

Ask: Does this molecule meet the criterion Emax < 50%? CCOC(=O)N1C2CCC1CC(N1CCC[C@@H](NC(=O)c3ccccc3C)C1)C2 (stereo partly shown)
Result: no (0)

Ask: Please let me know if CCOC(=O)N1C2CCC1CC(N1CCC[C@@H](NC(=O)c3ccc(F)c(F)c3)C1)C2 (stereo partly shown) shows Emax below 50%.
Result: no (0)
